Data provenance: patent US11225479B2

- experiment-summary: Brain and plasma exposure following IV and PO administration to mice
- Type: in vivo
- condition-context: 10 mg/kg PO
property-label: Brain Cmax @ 10 mpk

In [3]: df
Out[3]:
                                item_smiles       property_label  recorded_measurement
0  CCc1ncc2c(n1)CN(C(=O)Nc1nc(-c3cccs3)ccc1N)C2  Brain Cmax @ 10 mpk              526 ng/g
1  Cc1cc2c(cn1)CN(C(=O)Nc1nc(-c3cccnc3)ccc1N)C2  Brain Cmax @ 10 mpk              237 ng/g
2  Cn1cc2c(n1)CN(C(=O)Nc1nc(-c3cccnc3)ccc1N)C2  Brain Cmax @ 10 mpk              369 ng/g
3  CCc1ncc2c(n1)CN(C(=O)Nc1nc(-c3ccc(F)cc3)ccc1N)C2  Brain Cmax @ 10 mpk             1241 ng/g
4  Nc1ccc(-c2ccc(F)cc2)nc1NC(=O)N1Cc2cn(C3COC3)nc2C1  Brain Cmax @ 10 mpk              636 ng/g
5  Cc1ncc2c(n1)CN(C(=O)Nc1nc(-c3ccc(F)s3)ccc1N)C2  Brain Cmax @ 10 mpk              760 ng/g
6  Cc1ncc2c(n1)CN(C(=O)Nc1nc(-c3ccc(F)cc3)ccc1N)C2  Brain Cmax @ 10 mpk              633 ng/g
7  Cc1nc2c(n1C)CN(C(=O)Nc1nc(-c3ccc(F)cc3)ccc1N)C2  Brain Cmax @ 10 mpk              102 ng/g
8  Cc1ncc(-c2ccc(N)c(NC(=O)N3Cc4cn(CC(F)F)nc4C3)n2)s1  Brain Cmax @ 10 mpk              277 ng/g

----------
- experiment-summary: Brain and plasma exposure following IV and PO administration to mice
- Type: in vivo
- condition-context: 10 mg/kg PO
property-label: Brain Cmax @ 10 mpk (ng/g)

In [3]: df
Out[3]:
                                   compound  recorded_measurement
0  Cc1ncc(-c2ccc(N)c(NC(=O)N3Cc4cn(C)nc4C3)n2)s1 [Compound 4]                   324
1  CCc1cc2c(cn1)CN(C(=O)Nc1nc(-c3cccnc3)ccc1N)C2 [Compound 8]                   279
2  Nc1ccc(-c2cccs2)nc1NC(=O)N1Cc2cncnc2C1 [Comparator 6, reference compound]                   100
